The reported measurements were obtained from the supplement of paper PMC8882468.

Quick reference: CTG-3D luminescence at 96 h of the listed items.
# Test system: HCI-010 (organoid from a breast cancer xenograft)
# method: CTG-3D luminescence at 96 h relative to day-0 seeding control (ratio to day 0); higher = more growth / less cytotoxicity; PDxO 3D drug screen, 96 h, CTG-3D normalised to day-0 seeding control.
# particulars: 0.00025 µM; days in culture: 103
Keep the answer to the number alone.

# example entries with known answers
Cc1nc(-c2cn3c(n2)-c2ccc(-c4cnn(C(C)(C)C(N)=O)c4)cc2OCC3)n(C(C)C)n1 = 3.66
NC(=O)c1cccc2cn(-c3ccc([C@@H]4CCCNC4)cc3)nc12 = 3.18

Consider the record given below.
Please report CTG-3D luminescence at 96 h with HCI-010 for item CCN(c1cc(C#CCN2CCOCC2)cc(C(=O)NCc2c(C)cc(C)[nH]c2=O)c1C)[C@H]1CC[C@H](N(C)CCOC)CC1 .
3.22

* * *

Quick reference: CTG-3D luminescence at 96 h of the listed items.
# Test system: HCI-002 (organoid from a triple-negative breast cancer xenograft)
# method: CTG-3D luminescence at 96 h relative to day-0 seeding control (ratio to day 0); higher = more growth / less cytotoxicity; PDxO 3D drug screen, 96 h, CTG-3D normalised to day-0 seeding control.
# particulars: 1 µM; days in culture: 209
Keep the answer to the number alone.

# example entries with known answers
CNC(=O)c1cccc(-c2ccc3c(N4CCOC[C@@H]4C)nc(N4CCOC[C@@H]4C)nc3n2)c1 = 0.917
CCN(c1cc(C#CCN2CCOCC2)cc(C(=O)NCc2c(C)cc(C)[nH]c2=O)c1C)[C@H]1CC[C@H](N(C)CCOC)CC1 = 2.93
C[C@@H]1COCCN1c1cc(C2([S@](C)(=N)=O)CC2)nc(-c2cc[nH]c3nccc2-3)n1 = 1.41
CCc1c2c(nc3ccc(O)cc13)-c1cc3c(c(=O)n1C2)COC(=O)[C@]3(O)CC = 0.155
CN(Cc1cnc2nc(N)nc(N)c2n1)c1ccc(C(=O)N[C@@H](CCC(=O)O)C(=O)O)cc1 [methotrexate] = 1.59

Determine its reported CTG-3D luminescence at 96 h: Nc1ccn([C@@H]2O[C@H](CO)[C@@H](O)C2(F)F)c(=O)n1
0.32

Determine its reported CTG-3D luminescence at 96 h: CCN1CCN(Cc2ccc(Nc3ncc(F)c(-c4cc(F)c5nc(C)n(C(C)C)c5c4)n3)nc2)CC1
1.49

Determine its reported CTG-3D luminescence at 96 h: O=C(/C=C/c1cccnc1)NCCCCC1CCN(C(=O)c2ccccc2)CC1
0.0401

Determine its reported CTG-3D luminescence at 96 h: NC(=O)Nc1cc(-c2cccc(F)c2)sc1C(=O)N[C@H]1CCCNC1
1.31

* * *

Quick reference: CTG-3D luminescence at 96 h of the listed items.
# System: HCI-024 (organoid from a breast cancer xenograft)
# method: CTG-3D luminescence at 96 h relative to day-0 seeding control (ratio to day 0); higher = more growth / less cytotoxicity; PDxO 3D drug screen, 96 h, CTG-3D normalised to day-0 seeding control.
# particulars: 0.1 µM; days in culture: 163
Keep the answer to the number alone.

# example entries with known answers
CC1(C)CCC(c2ccc(Cl)cc2)=C(CN2CCN(c3ccc(C(=O)NS(=O)(=O)c4ccc(N[C@H](CCN5CCOCC5)CSc5ccccc5)c(S(=O)(=O)C(F)(F)F)c4)cc3)CC2)C1 = 2.8
COc1cccc2c1C(=O)c1c(O)c3c(c(O)c1C2=O)C[C@@](O)(C(=O)CO)C[C@@H]3O[C@H]1C[C@H](N)[C@H](O)[C@H](C)O1 = 2.3

Consider the record given below.
Determine its reported CTG-3D luminescence at 96 h: O=C(/C=C/c1cccnc1)NCCCCC1CCN(C(=O)c2ccccc2)CC1
0.221
